Target: human GLP-1 receptor (human, UniProt P43220 24-463)
Assay: cell-based or functional assay
Positions of bridges follow the written chain, without caps; N, C: chain ends. Non-standard residues stand in square brackets, D forms with d. No end group written: not given here. *: point of attachment. Acetyl(2-(4-imidazolyl)) = O=C(Cc1c[nH]cn1)*; Aib = CC(C)(N)C(=O)O
Overview of recorded In vitro Activity Compared to Native Peptide (%) vs. GLP-1 for various binders
measured_attribute: In vitro Activity Compared to Native Peptide (%) vs. GLP-1

binder="Y[Aib]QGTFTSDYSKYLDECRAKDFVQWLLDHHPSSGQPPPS (bridge 16-20) [triple agonist of SEQ ID NO: 66]" reported_measurement=15.8%
binder="H[Aib]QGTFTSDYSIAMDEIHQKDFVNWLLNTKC (bridge 16-20) [triple agonist of SEQ ID NO: 35]" reported_measurement=7.5%
binder="Y[Aib]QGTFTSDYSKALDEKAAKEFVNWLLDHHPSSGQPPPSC (bridge 16-20) [triple agonist of SEQ ID NO: 98]" reported_measurement=28.1%
binder="[Acetyl(2-(4-imidazolyl))][Aib]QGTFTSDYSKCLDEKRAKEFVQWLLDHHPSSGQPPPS (bridge 16-20) [triple agonist of SEQ ID NO: 74]" reported_measurement=12.9%
binder="H[Aib]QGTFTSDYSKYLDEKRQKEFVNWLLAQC (bridge 16-20) [triple agonist of SEQ ID NO: 56]" reported_measurement=57.9%
binder="HGQGTFTSDCSKYLDEQHAQEFVAWLLAGGPSSGAPPPS [triple agonist of SEQ ID NO: 46]" reported_measurement=1.4%
binder="Y[Aib]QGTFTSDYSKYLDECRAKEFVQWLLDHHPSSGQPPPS (bridge 16-20) [triple agonist of SEQ ID NO: 21]" reported_measurement=17.8%
binder="H[Aib]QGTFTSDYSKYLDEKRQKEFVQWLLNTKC (bridge 16-20) [triple agonist of SEQ ID NO: 58]" reported_measurement=39.1%
binder="H[Aib]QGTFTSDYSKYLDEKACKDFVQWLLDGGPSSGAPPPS (bridge 16-20; also: ring type not given here) [triple agonist of SEQ ID NO: 32]" reported_measurement=151%
binder="[Acetyl(2-(4-imidazolyl))]GQGTFTSDLSIQYDSEHQRDFIEWLKDTGPSSGAPPPSHG [triple agonist of SEQ ID NO: 19]" reported_measurement="< 0.1%"
binder="H[Aib]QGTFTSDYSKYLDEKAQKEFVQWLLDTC (bridge 16-20) [triple agonist of SEQ ID NO: 30]" reported_measurement=142%
